Molecular target: JAK3 (Homo sapiens)
Construct: All enzymes only contain the catalytic domain; His (N)
Sequence (P52333 822-1111 limits assumed): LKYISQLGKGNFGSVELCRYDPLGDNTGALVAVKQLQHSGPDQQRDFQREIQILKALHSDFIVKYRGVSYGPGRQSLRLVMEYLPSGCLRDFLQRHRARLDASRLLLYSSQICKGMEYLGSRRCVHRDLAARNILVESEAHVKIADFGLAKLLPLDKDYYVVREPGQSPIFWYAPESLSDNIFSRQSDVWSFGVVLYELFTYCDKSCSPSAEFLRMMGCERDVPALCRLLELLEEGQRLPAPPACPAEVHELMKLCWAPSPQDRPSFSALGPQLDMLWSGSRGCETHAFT
Experiment: In vitro enzyme assay (cell-free HTRF kinase assay), JAK3
Conditions: catalytic domain, His-tag; ATP 3 μM, SRCtide 100 nM, reaction 30 min
quantity measured: IC50

compound | experimental target | IC50
O=C(NCCc1cccnc1)c1cc(Cl)c(C(=O)n2ccc3c(NC(=O)C4CC4)nccc32)c(Cl)c1 [Compound No. 169] | JAK3 (Homo sapiens) | < 1 µM
CN(C)CCNC(=O)c1cc(Cl)c(C(=O)n2ccc3c(NC(=O)C4CC4)nccc32)c(Cl)c1 [Compound No. 122] | JAK3 (Homo sapiens) | < 0.1 µM
CCNC(=O)c1cc(F)c(C(=O)c2c[nH]c3c(NC(=O)C4CC4)nccc23)c(F)c1 [Compound No. 60] | JAK3 (Homo sapiens) | < 0.5 µM
O=C(NCCCO)c1cc(F)c(C(=O)c2c[nH]c3c(NC(=O)C4CC4)nccc23)c(F)c1 [Compound No. 62] | JAK3 (Homo sapiens) | < 0.5 µM
O=C(Nc1nccc2c1ccn2C(=O)c1c(Cl)cc(CNCCCN2CCOCC2)cc1Cl)C1CC1 [Compound No. 166] | JAK3 (Homo sapiens) | < 0.5 µM

Fill in the recorded IC50 for this compound, with JAK3 (Homo sapiens) as test system: COC(=O)CNC(=O)c1cc(Cl)c(C(=O)c2c[nH]c3c(NC(=O)C4CC4)nccc23)c(Cl)c1 [Compound No. 35] < 0.5 µM

Fill in the recorded IC50 for this compound, with JAK3 (Homo sapiens) as test system: O=C(Nc1nccc2c1ccn2C(=O)c1c(Cl)cccc1Cl)C1CC1 [Compound No. 77] < 0.5 µM

Fill in the recorded IC50 for this compound, with JAK3 (Homo sapiens) as test system: O=C(NCCN1CCCCC1)c1cc(Cl)c(C(=O)n2ccc3c(NC(=O)C4CC4)nccc32)c(Cl)c1 [Compound No. 150] < 0.5 µM

Fill in the recorded IC50 for this compound, with JAK3 (Homo sapiens) as test system: O=C(c1c(Cl)cc(Br)cc1Cl)c1c[nH]c2c(NC(=O)C3CC3)nccc12 [Compound No. 22] < 0.5 µM
